test system: CD8+ T cell clone cpRW22; assay: IFN-gamma ELISPOT assay of synthetic UL47 peptides; assay type: cell-based, human; conditions: in words
Attribute measured: recognition by cpRW22 in IFNγ ELISPOT assay

1) GLADTVVAC [UL47/551-559]	strongly positive
2) LGLADTVVAC (Herpes simplex virus 2) [UL47/550-559]	strongly positive
3) GLADTVVACV (Herpes simplex virus 2) [UL47/551-560]	strongly positive
